- Assayed target: UniProt:P23977
- Assay procedure: [3H]dopamine (DA) uptake inhibition in rat brain (caudate) synaptosomes
- Format: biochemical
- Protocol conditions: values in Table 9; read-out: Emax for DAT Uptake Inhibition
We begin with a simple list: items and their reported Emax.
Give the value, in units of %, as a plain number.

Worked set:
{"Molecule": "c1ccc(C(CNc2nc(-c3ccc4ncnn4c3)nc3ccccc23)c2ccccc2)cc1", "Emax / %": 63}
{"Molecule": "Cc1cc2nccn2cc1-c1nc(NCC(c2ccccc2)c2ccc[nH]2)c2ccccc2n1 (stereo not drawn)", "Emax / %": 69}
{"Molecule": "c1ccc(C(CCNc2nc(-c3cccnc3)nc3ccccc23)c2ccccc2)cc1", "Emax / %": 66}
{"Molecule": "Cc1cc2nccn2cc1-c1nc(NCC(c2ccccc2)c2ccccc2)c2ccccc2n1", "Emax / %": 63}
{"Molecule": "c1ccc(C(CNc2nc(-c3ccc4nccn4c3)nc3ccccc23)c2ccccc2)cc1", "Emax / %": 68}

Input c1ccc(C(CNc2nc(-c3ccc4[nH]ccc4c3)nc3ccccc23)c2ccccc2)cc1 . Output Emax: 74

Input c1ccc(C(CNc2nc(-c3cnc4nccn4c3)nc3ccccc23)c2ccncc2)cc1 (stereo not drawn) . Output Emax: 64

Emax measured on c1ccc(C(CNc2nc(-c3cnc4nccn4c3)nc3ccccc23)c2ccccc2)cc1 = 68

Entry Cc1cc2nccn2cc1-c1nc(NCC(O)(c2ccccc2)c2ccccc2)c2ccccc2n1 — recorded Emax = 67

---

For reference, IC50 measured on DAT (Rattus norvegicus (Rat), UniProt P23977):
Give just the numeric value; µM need not be written.

{"Compound": "c1ccc(C(CNc2nc(-c3ccc4nccn4c3)nc3ccccc23)c2ccc[nH]2)cc1 (centres unmarked)", "IC50 [µM]": 1.28}
{"Compound": "Cc1cc2nccn2cc1-c1nc(NCC(O)(c2ccccc2)c2ccccc2)c2ccccc2n1", "IC50 [µM]": 3.39}
{"Compound": "Cc1cc2nccn2cc1-c1nc(NCC(c2ccccc2)c2ccc[nH]2)c2ccccc2n1 (centres unmarked)", "IC50 [µM]": 3.74}
{"Compound": "Cc1cc(NS(C)(=O)=O)ccc1-c1nc(NCC(c2ccccc2)c2ccncc2)c2ccccc2n1 (centres unmarked)", "IC50 [µM]": 3.15}
{"Compound": "CN(C)c1ccc(-c2nc(NCC(c3ccccc3)c3ccccc3)c3ccccc3n2)cn1", "IC50 [µM]": 1.2}

The compound listed as c1ccc(C(CNc2nc(-c3ccc4nccn4c3)nc3ccccc23)c2cccnc2)cc1 (centres unmarked) shows IC50 equal to 1.17

// field: IC50; key: Cc1cc2nccn2cc1-c1nc(NCC(c2ccccc2)c2ccncc2)c2ccccc2n1 (centres unmarked) ; value = 2.34

Query Cn1cc2cc(-c3nc(NCC(c4ccccc4)c4ccccc4)c4ccccc4n3)ccc2n1 yields IC50 of 6.09

---

- Assayed target: dopamine transporter (DAT) (Rattus norvegicus (Rat), UniProt P23977)
- Sequence (P23977 whole entry): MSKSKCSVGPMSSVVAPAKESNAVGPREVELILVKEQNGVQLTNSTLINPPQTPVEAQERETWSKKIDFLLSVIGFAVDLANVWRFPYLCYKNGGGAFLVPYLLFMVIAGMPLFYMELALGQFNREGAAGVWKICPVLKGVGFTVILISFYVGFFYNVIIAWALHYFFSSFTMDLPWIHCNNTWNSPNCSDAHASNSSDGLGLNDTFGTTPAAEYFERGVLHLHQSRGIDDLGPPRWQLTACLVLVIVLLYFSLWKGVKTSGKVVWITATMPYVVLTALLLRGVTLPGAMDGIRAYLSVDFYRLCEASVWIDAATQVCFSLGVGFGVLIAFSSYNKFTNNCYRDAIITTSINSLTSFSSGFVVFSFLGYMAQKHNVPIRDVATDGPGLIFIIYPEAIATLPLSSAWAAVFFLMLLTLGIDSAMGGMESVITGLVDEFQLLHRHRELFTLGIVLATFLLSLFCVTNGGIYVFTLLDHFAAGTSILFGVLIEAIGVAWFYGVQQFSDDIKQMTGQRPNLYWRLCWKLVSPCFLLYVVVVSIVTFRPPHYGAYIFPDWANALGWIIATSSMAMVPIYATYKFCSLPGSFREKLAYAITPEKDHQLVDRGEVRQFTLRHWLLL
- Assay procedure: [3H]dopamine (DA) uptake inhibition in rat brain (caudate) synaptosomes
- Format: biochemical
- Protocol conditions: rat caudate synaptosomes, 5 nM [3H]dopamine, mean ± SD
Measured attribute: DA Uptake Emax (% I)
Report only the number, with the unit % I understood.

{"Molecule": "CN(C)c1ccc(-c2nc(NCC(c3ccccc3)C3CCCCC3)c3ccccc3n2)cc1 (stereo not shown)", "Assayed target": "dopamine transporter (DAT) (Rattus norvegicus (Rat), UniProt P23977)", "Measured attribute": "DA Uptake Emax", "Recorded measurement": 71}

Param item: CCN(CC)C(=O)[C@]1(c2ccccc2)C[C@@H]1CNc1nc(-c2ccc(N(C)C)cc2)nc2ccccc12 ; param system: dopamine transporter (DAT) (Rattus norvegicus (Rat), UniProt P23977); output DA Uptake Emax: 93

Record CS(=O)(=O)Nc1ccc(-c2nc(NCC(O)(c3ccccc3)c3ccccc3)c3ccccc3n2)cc1 / dopamine transporter (DAT) (Rattus norvegicus (Rat), UniProt P23977), DA Uptake Emax recorded as 70

Entry CN1CCN(C(CNc2nc(-c3ccc(NS(C)(=O)=O)cc3)nc3ccccc23)c2ccccc2)CC1 (stereo not shown) , dopamine transporter (DAT) (Rattus norvegicus (Rat), UniProt P23977) data, DA Uptake Emax value: 77
